test system: human lung cancer cell line H1299; assay: Caspase cascade activation (DEVD-R110 fluorogenic substrate) in H1299 cells; assay type: cell-based; conditions: H1299, 24 h; read-out: Caspase Activation Potency EC50 (nM) (24 h) H1299
Where a name gives a salt, the structure may show the parent alone.
quantity-measured: EC50 (nM)
Enter your answer as a number in nM; do not include the unit.

Some compounds with known EC50 results, for comparison:
[
  {
    "compound": "COc1ccc(N(C)c2nc(C)nc3scc(C)c23)cc1",
    "quantity-measured": "EC50",
    "value-unit": "nM",
    "meas-value": 9
  },
  {
    "compound": "COc1ccc(N(C)c2ncnc3sccc23)cc1",
    "quantity-measured": "EC50",
    "value-unit": "nM",
    "meas-value": 41
  },
  {
    "compound": "COc1ccc(N(C)c2nc(C)nc3sccc23)cc1",
    "quantity-measured": "EC50",
    "value-unit": "nM",
    "meas-value": 15
  }
]

Now for a further compound.
input: // returns reported EC50 for input COc1ccc(N(C)c2nc(-c3ccccc3)nc3ccsc23)cc1 [Example 19, hydrochloride]
output: 615
